// each record: one item and its pKi for Carbonic anhydrase 9 (Homo sapiens, UniProt Q16790)
Answers are plain numbers, as −log10 of the molar value.

NS(=O)(=O)c1ccc([Se]CCO)cc1 : 8.62

Hi, could you look up pKi for each item in my list?
1. COCC[Se]c1ccc(S(N)(=O)=O)cc1
2. NS(=O)(=O)c1ccc([Se]C2CCCCC2)cc1

Reply |
1. 7.92
2. 8.59

The following molecules each have a reported value; give each one's pKi.
1. CCCCC[Se]c1ccc(S(N)(=O)=O)cc1
2. CC(C)[Se]c1ccc(S(N)(=O)=O)cc1
3. C#CC[Se]c1ccc(S(N)(=O)=O)cc1
4. C=CC[Se]c1ccc(S(N)(=O)=O)cc1
5. C[Se]c1ccc(S(N)(=O)=O)cc1
6. NS(=O)(=O)c1ccc(C[Se]c2ccccc2)cc1

Reply |
1. 8.59
2. 8.62
3. 8.57
4. 8.59
5. 8.57
6. 8.57

Hi, could you look up pKi for each item in my list?
1. NS(=O)(=O)c1ccc([Se]CCc2ccccc2)cc1
2. CC#CC[Se]c1ccc(S(N)(=O)=O)cc1

Reply |
8.06
8.66
